The measurements presented in this section are drawn from patent US20080161232A1.

Molecular target: human C5aR(CD88) (Homo sapiens, UniProt P21730)
Construct: expressed in transfected cells; host or cells: rat basophilic leukemia cells (RBL)
Sequence (P21730 whole entry): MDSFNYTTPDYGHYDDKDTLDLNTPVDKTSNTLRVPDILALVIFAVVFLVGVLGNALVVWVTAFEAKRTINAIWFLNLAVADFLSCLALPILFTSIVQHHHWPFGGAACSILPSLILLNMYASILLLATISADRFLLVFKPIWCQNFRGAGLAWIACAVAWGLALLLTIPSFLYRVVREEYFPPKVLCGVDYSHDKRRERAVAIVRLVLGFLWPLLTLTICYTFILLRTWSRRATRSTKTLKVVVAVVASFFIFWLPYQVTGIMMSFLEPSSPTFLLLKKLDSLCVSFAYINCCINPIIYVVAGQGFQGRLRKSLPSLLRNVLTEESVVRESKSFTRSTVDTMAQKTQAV
Test: Determination of the IC50 value in an enzyme release assay (functional assay, antagonistic activity)
Type: cell-based
Details: antagonistic activity; IC50 group in enzyme release assay, RBL cells expressing human C5aR(CD88); read-out: activity (group)
Positions of bridges follow the written chain, without caps; N, C: chain ends. Non-standard residues stand in square brackets, D forms with d. Residues, ends and D or L forms follow the SMILES beside them. *: point of attachment. Orn(2-imidazolinyl) = N[C@@H](CCCNC1=NCCN1)C(=O)O; Phe(4-Cl) = N[C@@H](Cc1ccc(Cl)cc1)C(=O)O; Phe(3-F) = N[C@@H](Cc1cccc(F)c1)C(=O)O; Bta = N[C@@H](Cc1csc2ccccc12)C(=O)O; d(hLeu) = CC(C)CC[C@@H](N)C(=O)O; Cit = NC(=O)NCCC[C@H](N)C(=O)O; dCha = N[C@H](CC1CCCCC1)C(=O)O; Nicotinoyl = O=C(c1cccnc1)*; Orn = NCCC[C@H](N)C(=O)O; Aze = O=C(O)[C@@H]1CCN1; X22 = c1cncc(C*)c1
observation_type: IC50

Please review the entries below; each comes with its answer.
{"columns": ["compound", "IC50"],
 "data": [
  ["CC(=O)N[C@@H](Cc1ccccc1)C(=O)N[C@@H](CCCN)C(=O)N1CC[C@H]1C(=O)N[C@H](CC1CCCCC1)C(=O)N[C@@H](Cc1c[nH]c2ccccc12)C(=O)N[C@@H](Cc1ccccc1)C(N)=O [Compound 83, Ac-Phe-Orn-Aze-cha-Trp-Phe-NH2] (Ac-F[Orn][Aze][dCha]WF-NH2)", "20 to 50 nM"],
  ["CC(=O)N[C@@H](Cc1ccccc1)C(=O)N[C@@H](CCCNC1=NCCN1)C(=O)N1CCC[C@H]1C(=O)N[C@H](CC1CCCCC1)C(=O)N[C@@H](Cc1csc2ccccc12)C(=O)N[C@@H](Cc1ccccc1)C(N)=O [Compound 225, Ac-Phe-Ffa-Pro-cha-Bta-Phe-NH2] (Ac-F[Orn(2-imidazolinyl)]P[dCha][Bta]F-NH2)", "20 to 50 nM"],
  ["CC(=O)N[C@@H](Cc1ccccc1)C(=O)N[C@@H](CCCN)C(=O)N1CC[C@H]1C(=O)N[C@H](CC1CCCCC1)C(=O)N[C@@H](Cc1csc2ccccc12)C(=O)N[C@@H](Cc1ccccc1)C(N)=O [Compound 52, Ac-Phe-Orn-Aze-cha-Bta-Phe-NH2] (Ac-F[Orn][Aze][dCha][Bta]F-NH2)", "10 to 20 nM"],
  ["CC(=O)N[C@@H](Cc1ccccc1)C(=O)N[C@@H](CCCN)C(=O)N1CCC[C@H]1C(=O)N[C@H](CCC(C)C)C(=O)N[C@@H](Cc1ccccc1)C(=O)N[C@@H](Cc1ccccc1)C(N)=O [Compound 304, Ac-Phe-Orn-Pro-hle-Phe-Phe-NH2] (Ac-F[Orn]P[d(hLeu)]FF-NH2)", "50 to 200 nM"],
  ["CC[C@@H](C)[C@@H](NC(=O)[C@@H]1CCCN1C(=O)[C@H](CCCN)NC(=O)[C@H](Cc1ccccc1)NC(C)=O)C(=O)N[C@@H](Cc1c[nH]c2ccccc12)C(=O)N[C@@H](Cc1ccccc1)C(N)=O [Compound 307, Ac-Phe-Orn-Pro-ile-Trp-Phe-NH2] (Ac-F[Orn]P[dI]WF-NH2)", "5 to 10 nM"]
]}

*Q* # input compound: CC(=O)N[C@@H](Cc1ccccc1)C(=O)N[C@H]1CCCNC(=O)[C@H](CSCc2cccnc2)NC(=O)[C@H](Cc2c[nH]c3ccccc23)NC(=O)[C@@H](CC2CCCCC2)NC(=O)[C@@H]2CCCN2C1=O [compound 17] (Ac-F[Orn]P[dCha]WC(X22); lactam 2-C) ; wanted: its IC50
*A* 200 to 2000 nM

*Q* # input compound: CC(C)CC[C@@H](NC(=O)[C@@H]1CCCN1C(=O)[C@H](CCCNC(N)=O)NC(=O)[C@H](Cc1ccccc1)NC(=O)c1cccnc1)C(=O)N[C@@H](Cc1csc2ccccc12)C(=O)N[C@@H](Cc1ccccc1)C(N)=O [Compound 329, Fbn-Phe-Cit-Pro-hle-Bta-Phe-NH2] (Nicotinoyl-F[Cit]P[d(hLeu)][Bta]F-NH2) ; wanted: its IC50
*A* 50 to 200 nM

*Q* # input compound: CC(=O)N[C@@H](Cc1ccccc1)C(=O)N[C@@H](CCCN)C(=O)N1CCC[C@H]1C(=O)N[C@H](CC1CCCCC1)C(=O)N[C@@H](Cc1csc2ccccc12)C(=O)N[C@@H](Cc1cccc(F)c1)C(N)=O [Compound 255, Ac-Phe-Orn-Pro-cha-Bta-Mff-NH2] (Ac-F[Orn]P[dCha][Bta][Phe(3-F)]-NH2) ; wanted: its IC50
*A* 10 to 20 nM

*Q* # input compound: CC(=O)N[C@@H](Cc1ccccc1)C(=O)N[C@@H](CCCN)C(=O)N1CCC[C@H]1C(=O)N[C@H](CCC(C)C)C(=O)N[C@@H](Cc1csc2ccccc12)C(=O)N[C@@H](Cc1ccc(Cl)cc1)C(N)=O [Compound 278, Ac-Phe-Orn-Pro-hle-Bta-Pcf-NH2] (Ac-F[Orn]P[d(hLeu)][Bta][Phe(4-Cl)]-NH2) ; wanted: its IC50
*A* 50 to 200 nM
